// provenance: PubChem BioAssay (Tox21)

# assay: qHTS assay to identify small molecule antagonists of the progesterone receptor (PR) signaling pathway - cell viability counter screen (AID 1346798); note: nearly all actives have a fitted effect of over 50% in size
# details: PR-UAS-bla HEK293T viability, CellTiter-Glo luminescence, 16 h; series mostly up to 92.4 µM
Inconclusive results are not listed. The source made the active and inactive calls. Calls come from the whole dose curve; as a rule, active = well fitted cell-killing curve with a large enough effect in the repeat runs; inconclusive = weak or mixed curves, or effect the other way; inactive = no such curve, though single readings can be large or run the other way.
Pick one: 1 (active), 0 (inactive)

Exercise: # lookup: test call for `c1ccc(SSc2ccccc2)cc1`
Key: 0

Exercise: # lookup: test call for `CC(=O)[C@H]1CC[C@H]2[C@@H]3CCC4=CC(=O)CC[C@]4(C)[C@H]3CC[C@]12C`
Key: 1

Exercise: # lookup: test call for C=CC(C)(CCC=C(C)C)OC=O (stereo not drawn)
Key: 0

Exercise: # lookup: test call for `COc1cc(/C=C/c2ccccc2)oc(=O)c1`
Key: 0

Exercise: # lookup: test call for `O=C1CCCCCCCCCCCCCCCO1`
Key: 0

Exercise: # lookup: test call for `Sc1nc2ccccc2s1`
Key: 0

Exercise: # lookup: test call for `Nc1cc(Cl)c(O)c(Cl)c1`
Key: 0

Exercise: # lookup: test call for `CC1(C)[C@@H](O)CC[C@]2(C)[C@H]3C(=O)C=C4[C@@H]5C[C@@](C)(C(=O)O)CC[C@]5(C)CC[C@@]4(C)[C@]3(C)CC[C@@H]12`
Key: 0

Exercise: # lookup: test call for `C=C(CC)C(=O)c1ccc(OCC(=O)O)c(Cl)c1Cl`
Key: 0

Exercise: # lookup: test call for CC(C(=O)O)c1ccc2c(c1)[nH]c1ccc(Cl)cc12 (stereo not drawn)
Key: 0

Exercise: # lookup: test call for `CC1(C)CC(O)CC(C)(C)N1`
Key: 0

Exercise: # lookup: test call for `CN1CCN(Cc2cc(-c3ccc4[nH]c(=O)oc4c3)co2)[C@@H](c2ccc(F)cc2)C1`
Key: 0

Exercise: # lookup: test call for `C=CC(=O)OCCOC(=O)C=C`
Key: 0

Exercise: # lookup: test call for `Cc1c(C)c2c(c(C)c1O)CC[C@@](C)(CCC[C@H](C)CCC[C@H](C)CCCC(C)C)O2`
Key: 0

Exercise: # lookup: test call for `Cc1c(C)c2c(c(C)c1OC(=O)c1cccnc1)CC[C@@](C)(CCC[C@H](C)CCC[C@H](C)CCCC(C)C)O2`
Key: 0

Exercise: # lookup: test call for CC(C)(C)c1ccc(C(O)CCCN2CCC(C(O)(c3ccccc3)c3ccccc3)CC2)cc1 (stereo not drawn)
Key: 0

Exercise: # lookup: test call for `NC(=S)NC(N)=S`
Key: 0

Exercise: # lookup: test call for `O=C(Nc1ccc2c(O)c(N=Nc3ccc(N=Nc4ccc(S(=O)(=O)O)cc4)cc3)c(S(=O)(=O)O)cc2c1)c1ccccc1`
Key: 0

Exercise: # lookup: test call for `CCOC(=O)Cn1cccc1-c1nc(-c2ccc(OC)cc2)c(-c2ccc(OC)cc2)s1`
Key: 0

Exercise: # lookup: test call for `CCCCCc1ccc(Cl)cc1`
Key: 0

Exercise: # lookup: test call for `CN1CCC[C@@H]1CCO[C@](C)(c1ccccc1)c1ccc(Cl)cc1`
Key: 1

Exercise: # lookup: test call for `CC(C)NC[C@@H](O)COc1ccc(CC(N)=O)cc1`
Key: 0

Exercise: # lookup: test call for `CN(C)CCN1CCN(c2cccc(Cl)c2)C1=O`
Key: 0
